Tested on: K4 kissing-loop RNA reporter;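 note: bound reporter read as fluorescence of individual clusters on recovered sequencing chips by microscopy, with normalized cluster intensities fitted with a binding model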
Protocol summary: apparent KD of K4 kissing-loop reporter; higher = weaker reporter binding
Settings: Eterna round: R107; input ligand: arginine 13.2 mM
Known apparent KD of K4 kissing-loop reporter of a selection of sequences
Please answer using the number first and the unit second.

# example entries with known answers
| Residue sequence | apparent KD of K4 kissing-loop reporter |
| --- | --- |
| GGGUUGAGCGGAAGGAGCGGCUGAACCAGUGAUGUUGGUUAAUCCAAGUGAUGUUGGAAAAGCCAGGUAGGUCGCCGCUUUAUCC [Same State Arg B GF 3] | 533 nM |
| AAGCCAUACUCGGCCGCCACUUACUUCGUUGCAGUGAUGUUGCACACGAAUCCGUCAUAGCAAAUAAGGACCGGGAGAUAUACCG [theeternabot_exclusion_KL_Trp_B_19] | 89.3 nM |
| GUAUCGCUAGGAGGAUAUUUCAAUUUGACUCUUUGAGUUAAUACGGAGUGAUGUUCCGUUUUACGGAAAGAAGGCCUAGUGAUAC [FMN B 14] | 150 nM |
| AAAUUUAUAUUAGAUACCAGUUUAAUGGAUGUAAAUUAUGACAUGAGUGAUGUUCAUGUAAGCCCUUGGCAGCUGGUAUGGGUUU [KL-XTheo-B21] | 110 nM |
| GGGUCUGUCGGAAGGAGCGCGCUAUGGAGUGAUGUUCCAUGACCGUACAGCUUACGGUCAGCGCAGGUAGGUCGCCGAUAGCGUU [Geordiar] | 116 nM |

Let us move to another entry and its apparent KD of K4 kissing-loop reporter.
Query :: Which apparent KD of K4 kissing-loop reporter is reported for this sequence? GGGCGCGGCGCGGCCGCCACUGCGCCUGGGUGCUCGCUGAGUGAUGUUCGUCGGCGGUUGGGUGGUAGGACCGGGUGCUGGCCGG [BDazzled - #13 SS Tryptophan B]
Result :: 463 nM

====

System: MS2 coat protein
Protocol summary: apparent KD of MS2 coat protein, switch OFF state (with FMN for OFF switches, without FMN for ON switches); designed switch direction (-1 OFF switch, 1 ON switch): 1; higher = weaker reporter binding
Settings: FMN input: 0 or 200 uM; Eterna round: R93 (includes R88 designs)
Measurement type: apparent KD of MS2 coat protein (nM)
Reply numerically in nM, unit not repeated.

Some sequences with known apparent KD of MS2 coat protein results, for comparison:
| Residue sequence | Units text | apparent KD of MS2 coat protein |
| --- | --- | --- |
| AGGAGACAUGAGGAUCACCCAUGUGAGAAGAGGCGAGGAUAUCGAAAGAAAGAAGAGAAACGAGAAGGCGCGAGCA [salish99-SS1-020] | nM | 37.1 |
| GUAUAUAUAAGACAGGAUAUCCUAAAGUAAACAUGAGGAUCACCCAUGUAAAGAAAGAAACUCAUGGAGAAGGGUCAAUAUAUAC [Mat - Same State 2 - Tesla mod - D82] | nM | 27.1 |
| AAAGUGCCGACGAAGGAUAUAGCGGGUGAGACAUGAGGAUCACCCAUGUAUGCAGAACUCAUCCUCUAGAAGGUUGAGACGGCUA [Bionlateat] | nM | 138 |
| AAAAAACAUGAGGAUCACCCAUGUAGAAACAUGGGAGGAUAUACAAAGACGAAAGUCAAAGUAGAAGGCCUAAAAA [Mat - Same State 1 - Mod - D157] | nM | 33.5 |

Query :: Can you look up apparent KD of MS2 coat protein on MS2 coat protein for AACAAUCUAUCUGAGGAUAUAUGUCGAAAGACAUGAGGAUCACCCAUGUGAAAACAUGAAAAAUAAUAGAAGGCAGAUAGAUUGA [SS2: 1141] ?
Result :: 413

Query :: Write down the reported apparent KD of MS2 coat protein of GAUAAACAUGAGGAUCACCCAUGUAGAAAUAUGGGAGGAUAUACGAAGACGAAAGUCAAAGUAGAAGGCCUAAAAG [Mat - Same State 1 - Eli mod - D114] , test system: MS2 coat protein.
Result :: 52.6

Query :: Fill in the recorded apparent KD of MS2 coat protein for this sequence, with MS2 coat protein as test system: GAACCACAUGAGGAUCACCCAUGUCAAAGAAAUCAAGGAUAUGCACAAAAGGAAAUAACUGCAGAAGGUGAACGAA [62%, Redo, 1]
Result :: 40.9

Query :: Under MS2 coat protein: apparent KD of MS2 coat protein value of GAAAAACAUGAGGAUCACCCAUGUAGAGAUAUGGGAGGAUAUACGAAGACGAAAGACGAUGUAGAAGGCCUAAAAG [Garnet 59] ?
Result :: 234

Query :: Could you share what apparent KD of MS2 coat protein was measured for GAAGACAUAGUUCAGGAUAUAGGAAUAGUCACAUGAGGAUCACCCAUGUGCAUUUAUAUGCGCACUUAGAAGGGAGGUAGUUAUA [SameState2 Malc#22] , tested on MS2 coat protein?
Result :: 26.4

Query :: Could you share what apparent KD of MS2 coat protein was measured for AAAAAAAAGGGUGAGGAUAUCGAAAAAAAAACAUGAGGAUCACCCAUGUGAAAAAAAAAAAAAUGCGAGAAGGCACUAAAAAAAAA [Same State 2.3] , tested on MS2 coat protein?
Result :: 104

Query :: Could you share what apparent KD of MS2 coat protein was measured for AGAAAACAUGAGGAUCACCCAUGUAGGAAUAUGGGAGGAUAUACAAAGACGAAAGUCAGAGUAGAAGGCCUAGGAA [salish99-SS1-089] , tested on MS2 coat protein?
Result :: 71.5

Query :: Give recorded apparent KD of MS2 coat protein with MS2 coat protein for the following sequence: GGGACCAGCGUCAAGGAUAUUCAUAUAUAAACAUGAGGAUCACCCAUGUAGGCCAGGAGGCCUUGGGAGAAGGUGAGUUGGCUCG [Xegedibe]
Result :: 249

Data origin, for the record: the supplement of paper PMC9170038
